molecular target: Troponin I, cardiac muscle (Homo sapiens) + Troponin T, cardiac muscle (Homo sapiens) + Troponin C, slow skeletal and cardiac muscles (Homo sapiens) (UniProt P19429+P45379+P63316); experiment: cardiac RTF calcium sensitivity activators, confirmation, biochemical, IANBD-TnC fluorescence, triplicate (AID 504383); settings: IANBD-labeled cardiac RTF, Ca2+ sensitivity fluorescence; at 7.2 µM; hits give high values; scaled from EC20 to saturating calcium; tested at EC20 calcium, 0.472 mM;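 further: 0% = DMSO at 0.472 mM calcium and 100% = DMSO at 2.9 mM calcium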
Hit rate of the full screen: of about 2,500 compounds, about 1,200 (48%) were called active. So high a share suggests a set chosen from earlier hits. This is one part of the list.
measured_quantity: activation (%)
Quick note: give the figure in %, leave out the unit.

- molecule: "Cc1cccc(NC2=Nc3ccccc3N3C2=Nc2c(c(C)nn2-c2ccccc2)C3c2ccc(O)c(O)c2)c1 (stereo not given)"
  activation, %: 362

Request: Return reported activation. Input molecule: `COc1cc(OC)c(NC(=O)c2cc3ccccc3cc2O)cc1Cl`
Result: 12.7

* * *

molecular target: Troponin I, cardiac muscle (Homo sapiens) + Troponin T, cardiac muscle (Homo sapiens) + Troponin C, slow skeletal and cardiac muscles (Homo sapiens) (UniProt P19429+P45379+P63316); test: cardiac RTF calcium sensitivity activators, confirmation, biochemical, IANBD-TnC fluorescence, triplicate (AID 504383); conditions: IANBD-labeled cardiac RTF, Ca2+ sensitivity fluorescence; at 7.2 µM; hits give high values; scaled from EC20 to saturating calcium; tested at EC20 calcium, 0.472 mM;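 further: 0% = DMSO at 0.472 mM calcium and 100% = DMSO at 2.9 mM calcium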
The whole screen tested about 2,500 compounds, of which about 1,200 (48%) were called active. The set was probably picked from earlier hits. The list shows a part of the results.
// bucketize activation: Low = under 7%, Medium = from 7% up to 20%, High = 20% and over

Before answering, review these 5 worked examples.
- molecule: "O=C(CNCc1cccs1)Nc1ccc(S(=O)(=O)N2CCCCC2)cc1"
  class_label: "High"
- molecule: "CN(C)CCCN1C(=O)c2cccc3c([N+](=O)[O-])ccc(c23)C1=O"
  class_label: "High"
- molecule: "O=C(CO/N=C/c1ccccc1OC(F)F)NCc1cccs1"
  class_label: "High"
- molecule: "COc1cccc(/C=N/Nc2nnc3c(n2)[nH]c2ccccc23)c1OC"
  class_label: "Medium"
- molecule: "CCC(=Cc1ccccc1OC)c1ccncc1"
  class_label: "Medium"

Request: Hi, small favor: classify `CC1=Nc2ccccc2/C1=C\c1nc(-c2ccc(C(F)(F)F)cc2)oc1O` by its activation when you get a moment.
Result: Medium

* * *

molecular target: Troponin I, cardiac muscle (Homo sapiens) + Troponin T, cardiac muscle (Homo sapiens) + Troponin C, slow skeletal and cardiac muscles (Homo sapiens) (UniProt P19429+P45379+P63316); assay: cardiac RTF calcium sensitivity activators, confirmation, biochemical, IANBD-TnC fluorescence, triplicate (AID 504383); conditions: IANBD-labeled cardiac RTF, Ca2+ sensitivity fluorescence; at 7.2 µM; scaled from EC20 to saturating calcium; tested at EC20 calcium, 0.472 mM;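 further: 0% = DMSO at 0.472 mM calcium and 100% = DMSO at 2.9 mM calcium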
The whole screen tested about 2,500 compounds, of which about 1,200 (48%) were called active.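 Rule for the calls: active = mean activation above the low control average plus 3 SD, as set in the primary screen (cut at about 12% in these data); inactive = the rest.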 So high a share suggests a set chosen from earlier hits. The list shows a part of the results.
Hello, when you answer, please use one of the following outcomes: label 1 (active), label 0 (inactive)

- compound: "CC(=O)OCC[N+](C)(C)C"
  class_label: "label 1"
- compound: "O=c1cc(CN2CCCc3ccccc32)nc2sccn12"
  class_label: "label 0"
- compound: "Cc1ccc(-n2nnnc2C(=Cc2ccc(N(C)C)cc2)c2nnnn2-c2ccc(C)cc2)cc1"
  class_label: "label 1"
- compound: "CCC1C/C(=C\\c2cc(OC)c(OC)cc2OC)C(=O)/C(=C/c2cc(OC)c(OC)cc2OC)C1 (configuration not stated)"
  class_label: "label 1"
- compound: "CCOC(=O)N1CCC(Nc2nc3ccccc3nc2NS(=O)(=O)c2ccc(Cl)cc2)CC1"
  class_label: "label 0"

Request: Could you please tell me the result logged for `c1ccc2c(c1)CCCN2Cc1nnc2n1CCCCC2` in this assay?
Result: label 1

Request: Hey, what did the test say about `CCOC(=O)c1cnc(SC)nc1Oc1cccc(NS(=O)(=O)c2ccc(Cl)cc2)c1` ?
Result: label 1

Request: Query: recorded result category for `CC(C)(C)NCc1cc(Cl)ccc1OCc1cccs1` in this test
Result: label 1

Request: Look up the recorded call for `N#Cc1ccccc1OCC(=O)OCC(=O)c1ccc2c(c1)NC(=O)CO2` in this test.
Result: label 1

Request: Please state the recorded outcome for this compound: `S=C(Nc1cc(Cl)ccc1Oc1ccccc1)N1CCN(c2ccccn2)CC1`
Result: label 1

Request: What call does the record list for C#CCOCCOCCOCCNc1nc(N2CCN(C(=O)Cn3cc(CCCCN)nn3)CC2)nc(N2CCN(C(=O)Cn3cc(CC(C)O)nn3)CC2)n1 (configuration not stated) ?
Result: label 0

Request: Short answer needed: outcome of this test for `O=C(CNC(=O)C12CC3CC(CC(C3)C1)C2)OCC(=O)N1CCCCC1` ?
Result: label 0

Request: Dear colleague, could you share the recorded outcome for `CCOC(=O)CCc1c(C)nc(-n2[nH]c(C)c(CCO)c2=O)[nH]c1=O` when you have a moment?
Result: label 0

Request: Called result for `CSc1nc2c(c(=O)[nH]c(=O)n2C)n1CCCc1ccccc1`
Result: label 0

Request: Fill in: this test's call for `Cn1nnc(NC(=S)NC(=O)/C=C/c2ccco2)n1` is ___
Result: label 0

Request: What did the test return for `CSC1=NSC2=NC(=O)/C(=C/c3coc4ccccc4c3=O)C(=N)N12` ?
Result: label 0

Request: Which outcome was entered for the compound `COc1cc(OC)c(OC)cc1/C=C1/Cc2ccccc2C1=O` in this test?
Result: label 0

Request: How was `Cc1nc(-n2[nH]c3c(c2=O)CCCC3)[nH]c(=O)c1Cc1ccccc1` classified in this test?
Result: label 1

Request: What is the recorded call for this compound in the test? `O=C(CCc1ccc(S(=O)(=O)NCCc2ccccc2)cc1)N1CCN(Cc2ccc3c(c2)OCO3)CC1`
Result: label 0

Request: Test call, this compound: c1ccc2c(c1)CCCN2Cc1nnnn1CC1CCCO1 (configuration not stated)
Result: label 0

Request: Called result for `CCOC(=O)CSc1nc2c(c(=O)n(C)c(=O)n2C)n1Cc1ccccc1F`
Result: label 1

Request: Any idea what this test logged for `O=C(COc1ccccc1Cl)N1CCN(c2ccccn2)CC1` ?
Result: label 0

* * *

target: Troponin I, cardiac muscle (Homo sapiens) + Troponin T, cardiac muscle (Homo sapiens) + Troponin C, slow skeletal and cardiac muscles (Homo sapiens) (UniProt P19429+P45379+P63316); experiment: cardiac RTF calcium sensitivity activators, confirmation, biochemical, IANBD-TnC fluorescence, triplicate (AID 504383); conditions: IANBD-labeled cardiac RTF, Ca2+ sensitivity fluorescence; at 7.2 µM; scaled from EC20 to saturating calcium; tested at EC20 calcium, 0.472 mM;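 further: 0% = DMSO at 0.472 mM calcium and 100% = DMSO at 2.9 mM calcium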
Out of some 2,500 compounds screened, about 1,200 (48%) were called active.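 How the source made its calls: active means mean activation above the low control average plus 3 SD, as set in the primary screen (cut at about 12% in these data); inactive means the rest.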 So high a share suggests a set chosen from earlier hits. Some of the results follow.
Assign a class; possible classes are True for active, False for inactive

- compound: "NC(=O)c1c(NC(=O)C2COc3ccccc3O2)sc2c1CCN(Cc1ccccc1)C2 (centres undefined)"
  class_label: "False"

Request: Record request — test call for Cc1ccc(NC(=O)C(C)Sc2nnc(C)n2C2CC2)cc1S(=O)(=O)N1CCOCC1 (centres undefined)
Result: False

Request: Test call for this compound, please: CCOc1cc(C2C(C#N)=C(N)OC(C)=C2C(C)=O)cc(Br)c1O (centres undefined)
Result: True

Request: What outcome does the record of this test show for CC(Sc1nnc(NCc2ccccc2)s1)C(=O)Nc1ccc2c(c1)C(=O)c1ccccc1C2=O (centres undefined) ?
Result: True

Request: Test call for this compound, please: `COc1cccc2c1C(=O)c1c(O)c3c(c(O)c1C2=O)C[C@](O)(C(C)=O)C[C@H]3O[C@@H]1C[C@@H](N)[C@@H](O)[C@@H](C)O1`
Result: False

Request: Can you look up the reported call for `CC(=O)Oc1ccc2c(c1)Oc1cc(OC(C)=O)ccc1C21OC(=O)c2ccccc21` for me?
Result: True

Request: Which outcome was assigned to COc1cccc2c1C(=O)c1c(O)c3c(c(O)c1C2=O)CC(O)(C(=O)CO)CC3OC1CC(N(C)C)C(O)C(C)O1 (centres undefined) in this test?
Result: True

Request: // outcome(item) with item = COc1cccc2c1C(=O)c1c(O)c3c(c(O)c1C2=O)CC(O)(C(C)=O)CC3OC1CC(N(C)C)C(O)C(C)O1 (centres undefined)
Result: False

Request: Look up the recorded call for O=C(Nc1ccc(Cl)cn1)C1COc2ccccc2O1 (centres undefined) in this test.
Result: True

* * *

# reported activation; entries follow
target: Troponin I, cardiac muscle (Homo sapiens) + Troponin T, cardiac muscle (Homo sapiens) + Troponin C, slow skeletal and cardiac muscles (Homo sapiens) (UniProt P19429+P45379+P63316); test: cardiac RTF calcium sensitivity activators, confirmation, biochemical, IANBD-TnC fluorescence, triplicate (AID 504383); settings: IANBD-labeled cardiac RTF, Ca2+ sensitivity fluorescence; at 7.2 µM; hits give high values; scaled from EC20 to saturating calcium; tested at EC20 calcium, 0.472 mM;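 further: 0% = DMSO at 0.472 mM calcium and 100% = DMSO at 2.9 mM calcium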
Screen size: about 2,500 compounds; about 1,200 (48%) were called active. The set was probably picked from earlier hits. This is one part of the list.
Kindly provide the numeric value in % only, without the unit symbol.

In the examples that follow, each entry is paired with its recorded activation.
- compound: "COc1ccc(/C=N/NC(=O)c2cccc([N+](=O)[O-])c2)cc1O"
  measured_quantity: "activation"
  obs_value: 15.3
- compound: "CN(C)c1ccc(/C=C(/C(=O)c2ccc(Cl)cc2Cl)n2cncn2)cc1"
  measured_quantity: "activation"
  obs_value: 4.11
- compound: "C=CCn1c(=O)[nH]c2nc3cc(N=CN(C)C)c(C)cc3nc2c1=O"
  measured_quantity: "activation"
  obs_value: 69.7
- compound: "CCCCN(C(=O)c1ccc2c(c1)OCCO2)c1c(N)n(CCCC)c(=O)[nH]c1=O"
  measured_quantity: "activation"
  obs_value: 3.97
- compound: "O=[N+]([O-])c1cc(-c2nc(-c3ccncc3)no2)ccc1Cl"
  measured_quantity: "activation"
  obs_value: 7.62
- compound: "CC(C)NC(=O)C1CCCN(c2nnc(-n3cccc3)s2)C1 (stereo unspecified)"
  measured_quantity: "activation"
  obs_value: 1270
- compound: "Cc1ccccc1-n1c(=O)n(CCc2ccccc2)c(=O)c2[nH]cnc21"
  measured_quantity: "activation"
  obs_value: 8.97
- compound: "CCN1C(=O)c2cccc3c(NC(=O)c4ccc5c(c4)OCCO5)ccc1c23"
  measured_quantity: "activation"
  obs_value: 1730

Request: Quote activation reported for `CC(C)CNC(=S)NC(=O)c1ccccc1Cl` please.
Result: 106

Request: Read the entry `C=CCNc1nnc(SCC(=O)N2CCCCC2)c2ccccc12` and write its reported activation.
Result: 15.7

Request: Please look at this compound and report its activation: `Cc1cccc(OCCNc2ccc(C(F)(F)F)cc2[N+](=O)[O-])c1`
Result: 159

Request: Please give the documented activation of `CCC/C(C#Cc1ccc(N(C)C)cc1)=C1/c2ccccc2C(=O)N1c1ccccc1`
Result: 94.7

Request: Retrieve activation measured for `N#CC1=C(N)SC(N)=C(C#N)C1c1cccc(O)c1` and print it.
Result: 6.27

Request: Retrieve activation measured for `CN(C)c1ccc(NC2=C([N+](=O)[O-])CS(=O)(=O)C2)cc1` and print it.
Result: 12.2

Request: Query activation for Brc1ccc(C2=CC(c3ccco3)n3ncnc3N2)cc1 (stereo unspecified)
Result: 7.55

Request: Check the records and state activation for `Nc1ccc(-c2c3ccc(=O)cc-3oc3cc(O)ccc23)cc1C(=O)O`
Result: 4.67

Request: For N#CC1=C(N)Oc2ccc3ccc(O)cc3c2C1c1ccsc1 (stereo unspecified) , write its activation.
Result: 31.6

Request: Give activation for the following compound: `Cc1nc(C)c2c(c1C(F)(F)F)-c1ccccc1C2(F)F`
Result: 9.1

Request: Give me measured activation, please, for this compound: `COc1cc(/C=N\NC(=O)CC(=O)NCCc2ccccc2)ccc1O`
Result: 7.55

Request: Query activation for `CCC(=O)Nc1ccc2c(c1)nc(CCN1CCN(C)CC1)n2C`
Result: 56

Request: Assign activation to the following record: `O=C(N/N=C/c1cccc([N+](=O)[O-])c1)c1cnccn1`
Result: 3.15

Request: Give the reported value of activation for this record: `O=C(CSc1ccc(-c2cccs2)nn1)N1CCCCC1`
Result: 0.96

Request: Give the reported value of activation for this record: `N/C(COc1cc(Cl)cc(Cl)c1)=N\O`
Result: 153

Request: Please give measured activation of the following entry: `O=C1CC(c2ccccc2)=NN1c1ccc([N+](=O)[O-])cc1`
Result: 10.7

Request: Output measured activation for this item: `CCCCCCn1c(=O)[nH]c2nc3cc(N)c(C)cc3nc2c1=O`
Result: 158

Request: In one line, give reported activation of the entry `O=c1cc(-c2ccccc2)oc2ccc(Br)cc12` .
Result: 6.06

Request: Return value of activation for input Cc1cc(C)n2nc(C(=O)N3CCCC(Nc4ccc(C(C)C)cc4)C3)cc2n1 (stereo unspecified) , no commentary.
Result: 11.9

Request: Hello, please tell me recorded activation for this one: `CCN1/C(=C2\SC(=S)N(Cc3ccccc3)C2=O)Sc2ccccc21`
Result: -1.47
